test system: SW-620; assay: NCI tumour cell line growth inhibition, 48 h
Activity calls are given as the source filed them. No stated cut-off is given here; in the data, active = GI50 up to about 1.1 µM and inactive = higher.
Recorded Endpoint: GI50

> print(dat)
                                   molecule  measured.target                result
1  CC(Oc1ccc2cc(C(=O)c3ccccc3)c(=O)oc2c1)C(=O)O (stereo unspecified)           SW-620   > 100 µM (inactive)
2  CC1CC(NC2CCCCC2)=Nc2ccccc2N1Cc1ccccc1 (stereo unspecified)           SW-620    6.37 µM (inactive)
3    N=C(N)SCc1ccc2c(c1)S(=O)(=O)c1ccccc1O2           SW-620    17.8 µM (inactive)
4  CCOC(=O)C1=C(C)N(C)C23OC4(C(=O)OC)CC2c2ccccc2C1N3C4=O (stereo unspecified)           SW-620    41.9 µM (inactive)
5  O=C1c2ccccc2C(=O)N1CCCC(=O)n1cc(F)c(=O)[nH]c1=O           SW-620  > 72.6 µM (inactive)
6  COCN1C(=O)[C@@H]2CCCN2C(=O)c2cc([N+](=O)[O-])ccc21           SW-620    65.8 µM (inactive)
